Data provenance is patent US20240317752A1.

// reported GI50 for each item listed
System under test: BaF3 BRAF-KIAA1549 fusion cells (Homo sapiens)
Construct: The BRAF-KIAA1549 fusion mutant was subcloned into pMXs-IRES-Blasticidin (RTV-016, Cell Biolabs, San Diego, CA); fused on or other part: Q9HCM3 (UPF0606 protein KIAA1549)
Sequence (P15056 whole entry, change not shown, the tested form may be a part): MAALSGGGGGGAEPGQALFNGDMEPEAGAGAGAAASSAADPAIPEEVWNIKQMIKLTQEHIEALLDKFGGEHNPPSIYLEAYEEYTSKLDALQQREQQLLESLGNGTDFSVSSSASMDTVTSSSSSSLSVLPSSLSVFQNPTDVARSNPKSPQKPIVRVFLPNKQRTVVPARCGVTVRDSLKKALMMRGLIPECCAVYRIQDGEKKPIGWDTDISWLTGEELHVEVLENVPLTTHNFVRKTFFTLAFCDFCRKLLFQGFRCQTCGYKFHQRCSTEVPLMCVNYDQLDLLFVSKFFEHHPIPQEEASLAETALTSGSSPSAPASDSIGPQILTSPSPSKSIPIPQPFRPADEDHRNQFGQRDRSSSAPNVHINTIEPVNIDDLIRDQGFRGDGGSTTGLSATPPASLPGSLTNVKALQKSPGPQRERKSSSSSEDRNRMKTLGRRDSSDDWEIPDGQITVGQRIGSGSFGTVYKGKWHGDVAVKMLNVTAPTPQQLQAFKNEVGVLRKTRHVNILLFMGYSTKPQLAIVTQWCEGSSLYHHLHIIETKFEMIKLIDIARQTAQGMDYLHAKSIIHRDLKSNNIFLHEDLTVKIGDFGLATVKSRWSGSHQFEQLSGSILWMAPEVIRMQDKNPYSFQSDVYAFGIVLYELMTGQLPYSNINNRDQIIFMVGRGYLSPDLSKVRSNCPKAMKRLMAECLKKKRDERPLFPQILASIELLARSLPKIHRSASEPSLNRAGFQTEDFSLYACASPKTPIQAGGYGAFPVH
Method: BaF3 BRAF-KIAA1549 fusion cell proliferation assay (CellTiterGlo)
Assay type: cell-based
Details: 96 hours incubation, potency code
Procedure: Retroviral Production: The BRAF-KIAA1549 fusion mutant was subcloned into pMXs-IRES-Blasticidin (RTV-016, Cell Biolabs, San Diego, CA). Retrovirus was produced by transfection of HEK 293T cells with the retroviral BRAF mutant expression vector pMXs-IRES-Blasticidin (RTV-016, Cell Biolabs), pCMV-Gag-Pol vector and pCMV-VSV-G-Envelope vector. Briefly, HEK 293T cells were plated in Poly-D-lysine coated 6-well plate (2.5×10^5 cells per well) and incubated overnight. […]

[
  {
    "Molecule": "Cc1ccc(NC(=O)CN2CCN3CCC2C3)cc1Nc1ncccc1-c1ncnc2[nH]cnc12 (stereo not shown) [Compound I-89]",
    "GI50": "≥ 0.5 µM"
  },
  {
    "Molecule": "Cc1ccc(NC(=O)c2cc(C(F)(F)F)ccn2)cc1Nc1ncccc1-c1ncnc2[nH]cnc12 [Compound I-2]",
    "GI50": "< 0.02 µM"
  },
  {
    "Molecule": "Cc1ccc(NC(=O)c2cc(C(F)(F)F)ccn2)cc1Nc1nccc(F)c1-c1ncnc2[nH]cnc12 [IA-117]",
    "GI50": "0.1 to 0.5 µM"
  },
  {
    "Molecule": "Cc1ccc(NC(=O)C[C@H]2CCO[C@@H](C(F)(F)F)C2)cc1Nc1ncccc1-c1ncnc2[nH]cnc12 (single isomer, unassigned) [IA-146]",
    "GI50": "0.02 to 0.1 µM"
  },
  {
    "Molecule": "Cc1ccc(NC(=O)Cn2cnc(C(F)(F)F)n2)cc1Nc1ncccc1-c1ncnc2[nH]cnc12 [Compound I-78]",
    "GI50": "0.02 to 0.1 µM"
  },
  {
    "Molecule": "Cc1ncc(NC(=O)c2ccnc(C(F)(F)F)c2)cc1Nc1ncccc1-c1ncnc2[nH]cnc12 [Compound I-17]",
    "GI50": "0.02 to 0.1 µM"
  },
  {
    "Molecule": "Cc1ccc(NC(=O)c2ccc(C(F)(F)F)c(Cl)c2)cc1Nc1ncccc1-c1ncnc2[nH]cnc12 [Compound I-33]",
    "GI50": "0.02 to 0.1 µM"
  }
]
